# Test system: UniProt P23458
# Sequence (P23458 875-1153): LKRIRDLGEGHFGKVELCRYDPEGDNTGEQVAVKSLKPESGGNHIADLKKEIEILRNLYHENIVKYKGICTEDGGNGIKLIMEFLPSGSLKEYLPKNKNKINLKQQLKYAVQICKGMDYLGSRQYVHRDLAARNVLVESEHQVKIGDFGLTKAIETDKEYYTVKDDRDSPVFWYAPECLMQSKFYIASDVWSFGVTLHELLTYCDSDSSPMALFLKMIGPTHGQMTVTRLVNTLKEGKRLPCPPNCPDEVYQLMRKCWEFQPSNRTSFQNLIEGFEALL
# Assay details: Purified kinase assay (Z'-LYTE), JAK1
# Type: biochemical
# Conditions: Table 1; read-out: JAK1 IC50
pIC50: −log10 of the molar value.
Recorded pIC50 values for a group of compounds are listed next.

The compound NC(=O)c1nnc(Nc2cccc(CN3CCOCC3)c2)cc1NCc1cccc(F)c1 showed pIC50 equal to < 6.00

The compound CCC(=O)N1CCC(c2ccc(Nc3cc(NCc4cccc(F)c4)c(C(N)=O)nn3)cc2)CC1 showed pIC50 equal to < 6.00

The compound CN(C)C(=O)C1CCN(c2ccc(Nc3cc(NCc4ccccc4F)c(C(N)=O)nn3)cc2)CC1 showed pIC50 equal to < 6.00

The compound NC(=O)c1nnc(Nc2ncc(C(=O)N3CCOCC3)s2)cc1NCc1cccc(F)c1 showed pIC50 equal to < 6.00

The compound CS(=O)(=O)Cc1ccc(Nc2cc(NCc3cccc(-c4ccncc4)c3)c(C(N)=O)nn2)cc1 showed pIC50 equal to < 6.00

The compound CC(=O)N1CCN(c2ccc(Nc3cc(NCc4ccccc4C)c(C(N)=O)nn3)cc2)CC1 showed pIC50 equal to 6.00 to 7.00

The compound CC(C)n1cc(Nc2cc(NCc3cccc(F)c3F)c(C(N)=O)nn2)cn1 showed pIC50 equal to 6.00 to 7.00

The compound CC(=O)N1CCN(c2ccc(Nc3cc(NCc4cccc(-c5cccnc5)c4)c(C(N)=O)nn3)cc2)CC1 showed pIC50 equal to < 6.00

***
The compound NC(=O)c1nnc(Nc2ccc(N3CCOCC3)cn2)cc1NCc1cccc(F)c1 showed pIC50 equal to < 6.00

The compound Cc1cc(Nc2cc(NCc3cccc(F)c3F)c(C(N)=O)nn2)ccc1N1CCOCC1 showed pIC50 equal to < 6.00

The compound CC(=O)N1CCN(c2ccc(Nc3cc(NCc4ccccc4F)c(C(N)=O)nn3)cc2)CC1 showed pIC50 equal to 6.00 to 7.00

The compound CC(C)n1cc(Nc2cc(NCc3c(F)cccc3F)c(C(N)=O)nn2)cn1 showed pIC50 equal to 6.00 to 7.00

The compound CC(=O)N1CCN(c2ccc(Nc3cc(NC4CCCCC4)c(C(N)=O)nn3)cc2)CC1 showed pIC50 equal to 6.00 to 7.00

The compound CCC(=O)N1CCC(Cn2cc(Nc3cc(NCc4cccc(F)c4F)c(C(N)=O)nn3)cn2)CC1 showed pIC50 equal to 6.00 to 7.00

The compound CC(=O)N1CCC(Cn2cc(Nc3cc(NCc4cccc(F)c4F)c(C(N)=O)nn3)cn2)CC1 showed pIC50 equal to < 6.00

The compound CC(=O)N1CCN(c2ccc(Nc3cc(NCc4cc(-n5ccnc5)ccc4F)c(C(N)=O)nn3)cc2)CC1 showed pIC50 equal to < 6.00
